conditions: [M+K]+; instrument: DT; stepped-field
METRIC NAME: collision cross section (N2) (Å²)

COMPOUND: CC/C=C\C/C=C\C/C=C\C/C=C\C/C=C\C/C=C\CCC(=O)O[C@H](COC(=O)CCCCCCC/C=C\CCCCC)COP(=O)([O-])OCC[N+](C)(C)C
collision cross section (N2), Å²: 296.6
//
COMPOUND: CCCCC/C=C\C/C=C\C/C=C\CCCCC(=O)O[C@H](COC(=O)CCCCCCC/C=C\CCCCC)COP(=O)([O-])OCC[N+](C)(C)C
collision cross section (N2), Å²: 287.5
//
COMPOUND: CC(=O)N[C@H]1[C@H](OC2[C@@H](O)[C@H](O[C@@H]([C@H](O[C@@H]3O[C@@H](C)[C@@H](O)[C@@H](O)[C@@H]3O)[C@@H](O)C=O)[C@H](O)CO)O[C@H](CO)[C@@H]2O)O[C@H](CO)[C@@H](O[C@@H]2O[C@@H](C)[C@@H](O)[C@@H](O)[C@@H]2O)[C@@H]1O[C@@H]1O[C@H](CO)[C@H](O)[C@H](O)[C@H]1O (some centres not stated)
collision cross section (N2), Å²: 305.8
//
COMPOUND: CC\C=C/C=C/C=C/C=C\CCCCCCCC(=O)O[C@H](COC(=O)CCCCCCCCCCCCCCC)COP(=O)([O-])OCC[N+](C)(C)C
collision cross section (N2), Å²: 289
//
COMPOUND: OC[C@H]1O[C@@](CO)(O[C@H]2O[C@H](CO)[C@@H](O)[C@H](O)[C@H]2O)[C@@H](O[C@H]2O[C@H](CO)[C@@H](O)[C@H](O)[C@H]2O)[C@@H]1O
collision cross section (N2), Å²: 221.9
//
COMPOUND: CCCCCCCCCCCCCCCCC(=O)O[C@H](COC(=O)CCCCCCCCCCCCCCC)COP(=O)(O)OCCN
collision cross section (N2), Å²: 277.2
//
COMPOUND: CCCCC/C=C\C/C=C\C/C=C\C/C=C\CCCCCC(=O)O[C@H](COC(=O)CCCCCCC/C=C\CCCCC)COP(=O)([O-])OCC[N+](C)(C)C
collision cross section (N2), Å²: 299
//
COMPOUND: NCC(=O)N[C@@H](CCCN=C(N)N)C(=O)NCC(=O)N[C@@H](CC(=O)O)C(=O)N[C@@H](CO)C(=O)O
collision cross section (N2), Å²: 210.4
//
COMPOUND: CCCC=CCC=CCC=CCC(=O)OC[C@H](COP(=O)(O)OCCN)OC(=O)CC=CCC=CCC=CCCC
collision cross section (N2), Å²: 241.7
//
COMPOUND: CCCC/C=C\C/C=C\CCCCCCCC(=O)OC[C@H](COP(=O)([O-])OCC[N+](C)(C)C)OC(=O)CCCC/C=C\C/C=C\C/C=C\CCCCC
collision cross section (N2), Å²: 293.8
//
COMPOUND: CCCCCCCCCCCCCCCCCCC(=O)O[C@H](COC(=O)CCCCCCCCCCCCCCC)COP(=O)(O)OCCN
collision cross section (N2), Å²: 286.2
//
COMPOUND: CC/C=C\C/C=C\C/C=C\C/C=C\CCCCC(=O)OC[C@H](COP(=O)(O)OCCN)OC(=O)CCCCCCCCC/C=C\C/C=C\CCCCC
collision cross section (N2), Å²: 288.7
